Test system: Escherichia coli TOP10
Assay: shrunken log2 fold change of peptide-encoding DNA abundance (4.5 h post-induction vs induction); higher = less antimicrobial activity (less host growth inhibition)
Details: time post-induction: 4.5 h; library: site-saturation at positions 5, 18, 19, 20
Listing of entries alongside the reported shrunken log2 fold change.
Just the number, please, no unit after it.

Some entries whose results are on file:
| RESIDUE CODES | TESTED TARGET | OBSERVED |
| --- | --- | --- |
| RRIRYRPPRLPRPRPRPYSSPRP | Escherichia coli TOP10 | -0.0396 |
| RRIRWRPPRLPRPRPRPKYSPRP | Escherichia coli TOP10 | -0.654 |
| RRIRNRPPRLPRPRPRPRWHPRP | Escherichia coli TOP10 | -0.114 |
| RRIRDRPPRLPRPRPRPLWMPRP | Escherichia coli TOP10 | 0.0442 |
| RRIRKRPPRLPRPRPRPPWDPRP | Escherichia coli TOP10 | 0.68 |

Task: Fill in the blank: the reported shrunken log2 fold change of RRIRCRPPRLPRPRPRPKMTPRP is ____.
Output: 0.0216

Task: Fill in the blank: the reported shrunken log2 fold change of RRIRMRPPRLPRPRPRPEGHPRP is ____.
Output: 2.72

Task: Fill in the blank: the reported shrunken log2 fold change of RRIRFRPPRLPRPRPRPDGPPRP is ____.
Output: 0.0689

Task: Fill in the blank: the reported shrunken log2 fold change of RRIRWRPPRLPRPRPRPSHQPRP is ____.
Output: -0.0408

---

Test system: Escherichia coli TOP10
Assay: shrunken log2 fold change of peptide-encoding DNA abundance (4.5 h post-induction vs induction); higher = less antimicrobial activity (less host growth inhibition)
Conditions: time post-induction: 4.5 h; library: site-saturation at positions 5, 18, 19, 20
Our labelling divides records by shrunken log2 fold change into ranges: bottom range (below -0.1), center range (-0.1 to below 0.05), top range (0.05 or more)

Worked set:
| RESIDUE CODES | LABEL CLASS |
| --- | --- |
| RRIRERPPRLPRPRPRPCGGPRP | center range |
| RRIRFRPPRLPRPRPRPIWYPRP | top range |
| RRIRNRPPRLPRPRPRPHGIPRP | bottom range |
| RRIRIRPPRLPRPRPRPRHMPRP | bottom range |
| RRIRHRPPRLPRPRPRPPSQPRP | bottom range |
| RRIRCRPPRLPRPRPRPQLHPRP | bottom range |
| RRIRIRPPRLPRPRPRPLSMPRP | bottom range |
| RRIRGRPPRLPRPRPRPCIMPRP | top range |

Task: Which shrunken log2 fold change band matches RRIRVRPPRLPRPRPRPYVEPRP ?
Output: bottom range

Task: Which shrunken log2 fold change band matches RRIRLRPPRLPRPRPRPCTIPRP ?
Output: bottom range

Task: Which shrunken log2 fold change band matches RRIRMRPPRLPRPRPRPSYWPRP ?
Output: top range

Task: Which shrunken log2 fold change band matches RRIRDRPPRLPRPRPRPLGIPRP ?
Output: top range

Task: Which shrunken log2 fold change band matches RRIRGRPPRLPRPRPRPECVPRP ?
Output: top range

---

Tested on: Escherichia coli TOP10;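 note: peptides expressed intracellularly from a pBAD plasmid library in pooled LB shake-flask culture, induced with 0.3% L-arabinose, DNA abundance read by NGS, three biological replicates, DESeq2 with apeglm shrinkage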
Test: shrunken log2 fold change of peptide-encoding DNA abundance (4.5 h post-induction vs induction); higher = less antimicrobial activity (less host growth inhibition)
Conditions: time post-induction: 4.5 h; library: site-saturation at positions 5, 18, 19, 20
Binary classification by shrunken log2 fold change, with -0.06 as an inclusive lower bound for condition met; all other cases are condition not met.

| RESIDUE CODES | LABEL CLASS |
| --- | --- |
| RRIRHRPPRLPRPRPRPEAMPRP | condition met |

Task: Could you verify whether the entry RRIRPRPPRLPRPRPRPGLCPRP shows shrunken log2 fold change of no less than -0.06?
Output: condition met

Task: Could you verify whether the entry RRIRSRPPRLPRPRPRPMYYPRP shows shrunken log2 fold change of no less than -0.06?
Output: condition not met

Task: Could you verify whether the entry RRIRCRPPRLPRPRPRPMHQPRP shows shrunken log2 fold change of no less than -0.06?
Output: condition not met
